Assay: DNDI: Metabolism
Assay type: ADME, 10090, Microsome
Conditions: mouse, microsomes
endpoint name: half-life (min)
Numbers only, in min.

q: State its half-life for this compound: O=C(C(c1ccc(Cl)cc1)c1cccnc1)N1CCN(c2ccc(C(F)(F)F)cc2)CC1 (stereo unspecified)
a: 30

* * *

Experiment: DNDI: Protein binding in dog plasma
Type: ADME, Canis lupus familiaris, 9615
Details: read-out: % bound (converted)
endpoint name: fraction unbound
Answers are plain numbers.

q: Give a short answer stating reported fraction unbound for O=C(C(c1ccc(Cl)cc1)c1cccnc1)N1CCN(c2ccc(C(F)(F)F)cc2)CC1 (stereo unspecified) .
a: 0.012

* * *

Test: DNDI: Lipophilicity (s.f. LogD water)
Format: physicochemical
endpoint name: logD
One number for each entry.

q: Note down logD recorded for O=C(C(c1ccc(Cl)cc1)c1cccnc1)N1CCN(c2ccc(C(F)(F)F)cc2)CC1 (stereo unspecified)
a: 5.44

* * *

Assay: DNDI: Solubility, 24 hour, FaSSIF buffer - pH 5.8, 37C
Type: physicochemical
Settings: read-out: Equilibrium
endpoint name: solubility thermodynamic at 24 h

q: Supply solubility thermodynamic at 24 h value. Item: O=C(C(c1ccc(Cl)cc1)c1cccnc1)N1CCN(c2ccc(C(F)(F)F)cc2)CC1 (stereo unspecified)
a: < 1 µg/mL

* * *

Tested on: Trypanosoma cruzi
Experiment: DNDI: Chagas in vitro
Format: functional, organism-based, Tulahuen C4 (LacZ)
Settings: Trypanosoma cruzi, Tulahuen C4 (LacZ)
endpoint name: IC50 (nM)
Numbers only, in nM.

O=C(C(c1ccc(Cl)cc1)c1cccnc1)N1CCN(c2ccc(C(F)(F)F)cc2)CC1 (stereo not given) = 10

For every item below, please supply its IC50.
1. CC(C)CN1CCN(C(=O)C(c2ccc(Cl)cc2)c2cccnc2)CC1 (stereo not given)
2. O=S(=O)(Cc1ccccc1)Nc1cnccc1N1CCN(c2ccc(C(F)(F)F)cc2)CC1

a:
1: 65; 2: 18

* * *

Experiment: DNDI: Metabolism
Format: ADME, Canis lupus familiaris, 9615, Microsome
Conditions: dog, microsomes; read-out: EH
endpoint name: hepatic extraction ratio
Answers are plain numbers.

q: Look up and report measured hepatic extraction ratio for this entry: O=C(C(c1ccc(Cl)cc1)c1cccnc1)N1CCN(c2ccc(C(F)(F)F)cc2)CC1 (stereo unspecified)
a: 0.38

* * *

Can you tell me pIC50 for the items I'm about to list?
Target: UniProtKB P08684
Assay: DNDI: CYP Inhibition
Type: ADME
pIC50: −log10 of the molar value.

N#Cc1ccc(C(C(=O)N2CCN(c3ccc(C(F)(F)F)cn3)CC2)c2cccnc2)cc1 (stereo not drawn) = < 4.70

For each of the compounds below, note its pIC50.
1. O=C(C(c1ccc(Cl)cc1)c1cccnc1)N1CCN(c2ccc(C(F)(F)F)nc2)CC1 (stereo not drawn)
2. O=C(C(c1ccc(Cl)cc1)c1cncnc1)N1CCN(c2ccc(C(F)(F)F)cc2)CC1 (stereo not drawn)

a:
1: < 4.70; 2: 4.70

* * *

Molecular target: Cytochrome P450 3A4 (Homo sapiens)
Sequence (P08684 whole entry): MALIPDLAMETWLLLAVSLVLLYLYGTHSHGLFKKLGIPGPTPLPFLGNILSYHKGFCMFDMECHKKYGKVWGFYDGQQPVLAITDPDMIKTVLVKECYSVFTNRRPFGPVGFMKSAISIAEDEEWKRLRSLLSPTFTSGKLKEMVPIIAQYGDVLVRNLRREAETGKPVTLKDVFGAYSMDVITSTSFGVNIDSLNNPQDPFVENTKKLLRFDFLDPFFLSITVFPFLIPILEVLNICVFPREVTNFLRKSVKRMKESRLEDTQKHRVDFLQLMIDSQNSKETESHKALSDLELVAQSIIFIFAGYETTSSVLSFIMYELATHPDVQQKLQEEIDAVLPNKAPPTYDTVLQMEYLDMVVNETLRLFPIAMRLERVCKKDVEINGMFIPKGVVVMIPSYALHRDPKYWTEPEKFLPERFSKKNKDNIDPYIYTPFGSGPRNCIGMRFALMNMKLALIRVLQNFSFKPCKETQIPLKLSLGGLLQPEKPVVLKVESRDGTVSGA
Assay: DNDI: CYP Inhibition
Format: ADME
endpoint name: pIC50
Answers are plain numbers, as −log10 of the molar value.

q: Respond only with pIC50 recorded for O=C(C(c1ccc(Cl)cc1)c1cccnc1)N1CCN(c2ccc(C(F)(F)F)cc2)CC1 (stereo unspecified)
a: 5.13

* * *

Assay: DNDI: Solubility in 0.01M HCl at pH 2 determined by nephelometry
Format: physicochemical
Conditions: 0.01 M HCl
Provide the recorded solubility kinetic for the entries that follow.
Numbers only, in mg/mL.

CS(=O)(=O)c1ccc(N2CCN(C(=O)C(c3ccc(Cl)cc3)c3cccnc3)CC2)cc1 (stereo not given) = 0.025

Attention now shifts to the item below.
q: Assign solubility kinetic to the following record: CS(=O)(=O)c1ccc(N2CCN(C(=O)C(c3ccc(Cl)cc3)c3cncnc3)CC2)cc1 (stereo not given)
a: 0.025
